Measured self-cleavage kobs at 10000 uM GlcN6P values are reported for all entries that follow.
B1: glmS ribozyme (parent)
chain: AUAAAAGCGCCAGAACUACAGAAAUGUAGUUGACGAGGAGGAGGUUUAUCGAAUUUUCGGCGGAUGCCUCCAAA

Variants of: B1
Run description: self-cleavage kobs at 10000 uM GlcN6P; higher = faster cleavage; RNA array
Assay setup: with glucosamine-6-phosphate
Variants at the floor of the assay were thinned out.

Here are 8 variants together with their reported answers.
- Record sequence: "AUAAAAGAGCCAGAACUACAGAAAUGUAGUUGACGAGAACGAGGUUUAUCGAAUUUCCGGCGGAUGCCUCCAAA"
  self-cleavage kobs at 10000 uM GlcN6P: "< 1e-05 s⁻¹"
- Record sequence: "AUAAAAGCGCCAGAACUACAGAAAUGUAGUUGACGAGGAGGAUGUUUAUCGAAUUUUCGGCGGAUGCCUGCAAA"
  self-cleavage kobs at 10000 uM GlcN6P: "< 1e-05 s⁻¹"
- Record sequence: "AUAAAAGGGCCAGAACUACAGAAAUGUAUUUGACGAGGAGGAGGUUUAUCGAAUUUUCGGCGGAUGCCUCCAAA"
  self-cleavage kobs at 10000 uM GlcN6P: "< 1e-05 s⁻¹"
- Record sequence: "AUAAAAGCGCCAGAACUACAGAAAUGUAGUUGACGAUGAGGAGGUUUAUCGAAUUUUCGGAGGAUGCCUCCAAA"
  self-cleavage kobs at 10000 uM GlcN6P: "< 1e-05 s⁻¹"
- Record sequence: "AUAAAUUUGCCAGAACUACAGAAAUGUAGUUAACGAGGAGGAGGUUUAUCUAAUUUUCGGCGGAUGCCUCCAAA"
  self-cleavage kobs at 10000 uM GlcN6P: "< 1e-05 s⁻¹"
- Record sequence: "AUAAAAUCGCCAGAACUACAGAAAUGUAGGUGACGAGGAGGAGGUUUAUCGAAUUUUCGGCGGAUGCCUCCAAA"
  self-cleavage kobs at 10000 uM GlcN6P: "< 1e-05 s⁻¹"
- Record sequence: "AUAAAAGCGCCAUAACUACAGAAAUGUAGUUGACGUGGAGGAGGUUUAUCGAAUUUUCGGCGGAUGCCUCCAAA"
  self-cleavage kobs at 10000 uM GlcN6P: "< 1e-05 s⁻¹"
- Record sequence: "AUAAAAACGCCAGAACUACAGAAAUGUAGUUCACGAGGAGGAGGUUUAUCGAAUUUUCGGCGGAUGCCUCCAAA"
  self-cleavage kobs at 10000 uM GlcN6P: "< 1e-05 s⁻¹"

Name the reported self-cleavage kobs at 10000 uM GlcN6P value associated with the variant `AUAAAAGCGCCAGAACUACAGAAAUGUAGUUGGCGAGGAGGAGGUUUAUCAAAUUUUCGGCGGAUGCCUCCAAA`
< 1e-05 s⁻¹

Again, but for `AUAAAACCGCCAGAACUACAGAAAUGUAGUUGACGAGGAGGAGGUUUUUCGAAUUUUCGGCGGAUGCCUGCAAA`
< 1e-05 s⁻¹

Again, but for `AUAAAAGCGCCAGAACUACAGAAAUGUAGUUGCCGAGGAGGAGGUUUAUCGAAUUUUCGGCGGAUACCUCCAAA`
0.000257 s⁻¹

Again, but for `AUAAAAGCGCCAGCACUACAGAAAUGUAGUUGACGAGGAGGAGGUUUAUCGAAUUUUCGGCGGAGGCUUCCAAA`
0.000226 s⁻¹

Again, but for `AUAAAAGCGCCACAACUACAGAAAUGUAGUAGACGAGGAGGAGGUUUAUCGAAUUUUCGGCGGAUGCCUCCAAA`
0.000314 s⁻¹

Again, but for `AUAAAAGCGCCAGAACUACAGAAAUGUAGUUGACGCGGAGGAGGUAUAUCGAAUUUUCGGCGGAUGCCUCCAAA`
< 1e-05 s⁻¹
